IC50 reference
- target: full length mouse TREX1 (Mus musculus)
- Construct: N-terminally His-Tev tagged full length mouse TREX1; made in house; host or cells: E. coli
- Sequence (Q91XB0 whole entry): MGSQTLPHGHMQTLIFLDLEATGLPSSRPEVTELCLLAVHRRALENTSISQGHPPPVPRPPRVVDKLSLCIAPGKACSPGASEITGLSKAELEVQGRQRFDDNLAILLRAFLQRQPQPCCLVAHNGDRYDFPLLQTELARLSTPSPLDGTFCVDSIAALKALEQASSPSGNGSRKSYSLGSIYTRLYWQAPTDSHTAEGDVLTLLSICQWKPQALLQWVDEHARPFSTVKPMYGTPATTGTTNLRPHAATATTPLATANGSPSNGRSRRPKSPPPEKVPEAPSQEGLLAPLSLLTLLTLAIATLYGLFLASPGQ
- assay-explanation: mTREX1 Biochemical Assay (fluorescence, dsDNA substrate degradation)
- condition-description: biochemical, read-out: mTREX1 IC50

Previously resolved entries follow.
CC(c1nc(C(=O)Nc2cnoc2)c(O)c(=O)n1C)C(c1cnn(CC2CC2)c1)c1ccccc1C#N (single isomer, unassigned) [Example 23 D2E1]	> 10 nM
Cc1nn(C)cc1C(c1cc(F)ccc1C#N)C(c1nc(C(=O)Nc2cnoc2)c(O)c(=O)n1C)C(F)(F)F (single isomer, unassigned) [Example 42 D2E2]	> 10 nM
COCCn1cc(C(c2ccccc2C#N)C(C)c2nc(C(=O)Nc3cnoc3)c(O)c(=O)n2C)cn1 (single isomer, unassigned) [Example 9 D1E1]	1 to 10 nM
CC(c1nc(C(=O)Nc2cnoc2)c(O)c(=O)n1C)C(c1ccccc1Cl)c1nncn1C (single isomer, unassigned) [Example 152 D2E1]	> 10 nM

Request: Need IC50, item CC(c1nc(C(=O)Nc2cnoc2)c(O)c(=O)n1C)C(c1cnn(C)c1)c1cccnc1C#N (single isomer, unassigned) [Example 7 D1E2]
Response: > 10 nM
